The measurements presented in this section are drawn from patent US12110281B2.

- System: dimethylnitrosamine (DMN)-induced liver injury male SD rats
- method-summary: Liver function-improving activities by oral administration in the liver injury model (1), 3 weeks
- Assay type: in vivo, rat
- conditions: serum, 0 week (Day 0, before administration of test compound), 25 mg/kg oral once a day
- Method: The compounds according to the present invention were orally administered to dimethylnitrosamine (DMN)-induced liver injury male SD rats for 3 weeks, so as to evaluate liver function-improving activities. […] Blood samples were collected on Day 3 after the completion of the first-week liver injury inducement and then the ALT (Alanine Transaminase) values and the AST (Aspartate Transaminase) values were measured so as to confirm the liver injury thereof. […]
molecules and their reported ALT values (average value)

# molecule, ALT values (average value)
records = [
    ("COc1cc(-c2ccc(C(=O)NCC3(N(C)C)CCOCC3)s2)ccc1O.Cl [Example 20]", "69.80 U/L"),
    ("COc1cc(-c2ccc(C(=O)NCCN(C(C)C)C(C)C)s2)ccc1O.Cl [Example 5]", "68.90 U/L"),
    ("CCN(CC)CCOc1ccc(-c2ccc(C(=O)NCC3(N(C)C)CCOCC3)s2)cc1OC.Cl.Cl [Example 21]", "70.98 U/L"),
]
